# System Under Test: T1, Eukaryotic initiation factor 4E (eIF4E), full-length human (human, UniProt P06730 1-217)
# T1 construct: eIF4E, human, full length
# T1 sequence (P06730 whole entry): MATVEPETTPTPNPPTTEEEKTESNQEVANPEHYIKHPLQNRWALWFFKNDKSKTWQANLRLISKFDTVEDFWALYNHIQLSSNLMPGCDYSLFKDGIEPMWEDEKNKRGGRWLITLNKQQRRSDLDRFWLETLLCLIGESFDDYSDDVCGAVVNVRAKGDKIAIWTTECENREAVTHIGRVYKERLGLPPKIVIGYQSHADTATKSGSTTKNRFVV
# Protocol Notes: SPR; eIF4E amine coupled to a CM5 chip (about 1000 RU, m7GTP present at immobilisation), peptides injected; 10 mM Hepes pH 7.6, 0.15 M NaCl, 1 mM DTT, 0.1% Tween20, 3% DMSO; Biacore T100; Kd from the association and dissociation phases (Kkin), 1:1 model, three titrations
# Measurement Context: both partners purified
pKd: −log10 of the molar value.
Decision: pKd >= 7 yields Met, all other cases yield Not met.

Binder | Class
KKRYSRDQLLAL (PHAGESOL with V10L; also called PHAGESOL V10L; source: synthetic peptide (Mimotopes), HPLC purified to >90%) [VL-PHAGESOL peptide] | Met
KKRYSRDFLVAF (PHAGESOL with Q8F and L12F; source: synthetic peptide (Mimotopes), HPLC purified to >90%) [PHAGESOL-Q8F/L12F peptide] | Not met
KKRYSREQLVAL (PHAGESOL with D7E; source: synthetic peptide (Mimotopes), HPLC purified to >90%) [PHAGESOL-D7E peptide] | Met

Request: Given KKRYSRDFLVAL (PHAGESOL with Q8F; source: synthetic peptide (Mimotopes), HPLC purified to >90%) [PHAGESOL-Q8F peptide] , state whether its pKd is at least 7.
Response: Not met

Request: pKd >= 7 for KKRYSRDQLLAF (PHAGESOL with V10L and L12F; source: synthetic peptide (Mimotopes), HPLC purified to >90%) [VL-PHAGESOL-L12F peptide] ?
Response: Met

Request: Say whether KKRYSREFLLAF (eIF4G1 peptide with D5 changed to S and G11 changed to A; source: synthetic peptide (Mimotopes), HPLC purified to >90%) [eIF4G1-OPT peptide] shows pKd of 7 or more.
Response: Met

Request: Dear colleague, could you confirm whether KKRYSRDFLLAL (PHAGESOL with V10L and Q8F; source: synthetic peptide (Mimotopes), HPLC purified to >90%) [VL-PHAGESOL-Q8F peptide] has pKd at or above 7?
Response: Met

Request: Identify whether the reported pKd of the following binder is 7 or greater: KKRYDREQLLGL (eIF4G1 peptide with F8Q and F12L; also called eIF4G1_F8Q/F12L; source: synthetic peptide (Mimotopes), HPLC purified to >90%) [eIF4G1-QL peptide]
Response: Not met
